Items are presented alongside their recorded ADC Cytotoxicity EC50.
Biological target: human uPAR displayed on the surface of MDA-MB-231 cells (human, UniProt Q03405 23-305)
Sequence (Q03405 23-305): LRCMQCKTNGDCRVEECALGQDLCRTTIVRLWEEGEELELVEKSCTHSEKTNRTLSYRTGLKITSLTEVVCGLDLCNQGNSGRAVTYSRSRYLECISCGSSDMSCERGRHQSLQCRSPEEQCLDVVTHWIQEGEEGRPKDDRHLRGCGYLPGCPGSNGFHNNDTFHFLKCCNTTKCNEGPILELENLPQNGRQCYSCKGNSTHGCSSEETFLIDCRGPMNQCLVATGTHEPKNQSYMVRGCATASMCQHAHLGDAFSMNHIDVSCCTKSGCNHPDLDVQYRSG
Assay: cell-based or functional assay

{"BINDER": "Antibody 8163 (antibody, human IgG1, V domains shown, Chimeric: mouse VH/VL linked to Herceptin (trastuzumab) human IgG1 / kappa constant regions) VH: EVQLVESGGGLVQPGESLTLSCDSNEFDFPSHDMSWVRKTPEKRLELVAAIDSDGGLTYYSNSRERRFIISRDNTKNTLYLQMRSLRSEDTALYYCARRRASYWYFDVWGTGTTVTVSS VL: DILLTQSPAILPVSPGERVSFSCRASQNIGTSIHWYQQRTNGSPRLLIKYASESISGIPSRFSGSGSGTDFTLSINGVESEDIGDYYCQQSNSWPTFGGGTKLEIK", "ADC Cytotoxicity EC50 / nM": 0.57}
{"BINDER": "Antibody 3159 (antibody, human IgG1, V domains shown, Chimeric: mouse VH/VL linked to Herceptin (trastuzumab) human IgG1 / kappa constant regions) VH: QVTLKESGPGILQSSLTLSLTCSLSGFSLSTSGMGVSWIRQPSGKGLEWLAHIYWDDDKRYNPSLKTRLTISKDASRDQVFLKIISVDTADTGTYYCGRRVRNYFSGTSYWYFDVWGTGTTVTVSS VL: DVLMTQTPLSLSVSLGDQASISCRSSQNILHRTGNTYLEWYLQKPGQSPKLLIYKVSNRFSGVPDRFSGSGSGTDFTLKISRLEAEDLGVYYCFQGSYVPFTFGSGTKLEMK", "ADC Cytotoxicity EC50 / nM": 0.75}
{"BINDER": "Antibody 3595 (antibody, human IgG1, V domains shown, Chimeric: mouse VH/VL linked to Herceptin (trastuzumab) human IgG1 / kappa constant regions) VH: EVQLRQSGPELVKPGASVKISCKASGYTFTDYYMNWVKQSHEKSLEWIGNINPNNGGTDYNQKFKGKATLTVDKSSSTAYMELRSLTSEDSAVYYCARSYGSRFPYWGLGTLVTVSA VL: DIQMTQTTSSLSASLGDRVTISCRASQDITNYLSWYQQKPDGTVKLLIFYTSFLQSGVPLRFSGSGSGADYSLTISNLEQEDFATYFCQQGHTLPWTFGGGTKLEIK", "ADC Cytotoxicity EC50 / nM": 0.66}
{"BINDER": "Antibody 11857 (antibody, human IgG1, V domains shown) VH: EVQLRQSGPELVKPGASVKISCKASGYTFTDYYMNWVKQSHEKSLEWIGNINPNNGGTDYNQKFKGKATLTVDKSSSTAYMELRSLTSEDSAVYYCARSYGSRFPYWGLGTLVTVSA VL: DIQMTQTTSSLSASLGDRVTISCRASQDITNYLSWYQQKPDGTVKLLIFYTAVLQSGFPLRFSGSGSGADYSLTISNLEQEDFATYFCQQGHTLPWTFGGGTKLEIK", "ADC Cytotoxicity EC50 / nM": 0.76}

Just for reference, patent US20260116983A1 is where these values come from.
